- target-system: KSHV Bcl-2 (KSHV)
- experiment: not stated in the sentence (ITC implied)
measurement-type: pKd
pKd field: float, defined as -log10 of concentration (mol/L).

// pKd value for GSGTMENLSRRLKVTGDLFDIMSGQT (modifications not checked) [Beclin 1 BH3D peptide, wild type] : 4.27
